- Test system: T-47D breast
- TEST DESCRIPTION: NCI tumour cell line growth inhibition, 48 h
MEASURE NAME: TGI

Example entries and their recorded answers appear below.
>>> result("CC1(C)COP(=S)(c2ccccn2)O[C@@H]1c1ccccc1 (stereo partly drawn)")
"> 100 µM"
>>> result("O=C(O)c1cccc(SSc2cccc(C(=O)O)c2)c1")
"> 100 µM"
>>> result("CC(C)(C)C(=O)OCCNc1nc(-c2ccccc2)nc2ccccc12")
"93.3 µM"
>>> result("CCOC(=O)C(C)c1nc2cc3cccnc3c(Cl)c2[nH]c1=O (stereo not drawn)")
"> 100 µM"
>>> result("COc1cc(OC)c2nc3occc3c(OC)c2c1")
"> 100 µM"

## Task GET /values?readout=TGI&item= CCN(CC)CCNC(=O)c1cc2cc(NC(=O)c3cc4cc(N)ccc4[nH]3)ccc2[nH]1
## Result > 100 µM

## Task How about OC1CCCCCCCCCCC1SCCCCl (stereo not drawn) ?
## Result > 100 µM

## Task Another: N#CCCC1(CCC#N)CCCCCCC(CCC#N)(CCC#N)C(=O)C1=O
## Result > 100 µM

## Task What about this compound? N#Cc1cnc(=O)n(C2CC(O)C(CO)O2)c1 (stereo not drawn)
## Result > 100 µM

## Task How about COC(=O)/C=C/CC(=O)NS(C)(=O)=O ?
## Result > 10 µM

## Task Same lookup for O=C1CSC(c2cccc(Cl)c2)N1c1ccc(-n2c(-c3ccccc3)nc3ccccc3c2=O)cc1 (stereo not drawn) , please.
## Result > 100 µM

## Task # repeat for CCOC(=O)C(=Cc1ccccc1Cl)C(=O)OCC
## Result 8.86 µM

## Task Same question, CC(=O)/C(=C/n1ccc(=O)[nH]c1=S)C(=O)Nc1ccccc1C this time
## Result > 100 µM

====

- Test system: COLO 205 colon
- TEST DESCRIPTION: NCI tumour cell line growth inhibition, 48 h
Recorded TGI values for a group of compounds are listed next.

Check out these entries, answers already filled in.
>>> result("O=C1OCC(C#Cc2ccccc2)=C1Br")
"> 54.7 µM"
>>> result("CCOC(=O)C1(C)CCCc2sc(N)c(C#N)c21 (stereo not drawn)")
"> 100 µM"

## Task Look up TGI with COLO 205 colon for this compound: O=c1[nH]ccc2c1ccn2C1CC(O)C(CO)O1 (stereo not drawn)
## Result > 100 µM

====

Examples of compounds with documented TGI follow.
- Tested on: HCT-15 colon
- TEST DESCRIPTION: NCI tumour cell line growth inhibition, 48 h

Reference set (5 entries):
>>> result("COC(=O)/C=C/CC(=O)NS(C)(=O)=O")
"> 10 µM"
>>> result("CCCNC1=C(C)C(=O)C2=C(C1=O)[C@H](COC(N)=O)[C@]1(OC)[C@@H]3N[C@@H]3CN21")
"72 µM"
>>> result("O=C(c1cccc(F)c1F)N1CCc2c([nH]c3ccccc23)C1c1ccc2c(c1)OCO2 (stereo not given)")
"> 100 µM"
>>> result("CC(C)CC(NC(=O)C(Cc1ccccc1)NC(=O)[C@H]1CC[C@H](NC(=O)C(Cc2ccc(OC(C)(C)C)cc2)NC(=O)OC(C)(C)C)C1)C(N)=O (stereo not given in full)")
"48.9 µM"
>>> result("COc1ccc(NC(=S)Nc2ccccc2)cc1")
"> 100 µM"

As a next step, examine the compound that follows.
## Task Kindly state the measured TGI obtained for CC(=O)Nc1ccccc1S(=O)(=O)c1ccccc1 with HCT-15 colon.
## Result > 100 µM
